- testTarget: SCRIB_1, Q14160
- Sequence (Q14160 718-814): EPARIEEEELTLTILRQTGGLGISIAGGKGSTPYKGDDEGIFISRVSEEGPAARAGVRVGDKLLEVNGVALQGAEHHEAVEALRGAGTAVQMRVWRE
- experiment: holdup assay
- Set-up: key: below the threshold = too weak to quantify, mostly under pKd 3.1 to 4
- testSettings: plain residues with an end cap or a label only (N-terminal biotin on a linker: ttds)
Measured pKd values are reported for all entries that follow.

binder: GRLLGLETNV [ARHGEF26, Q96DR7]
pKd: 4.45
--
binder: GARVSKETPL [MAPK12, P53778]
pKd: 4.94
--
binder: DLDEEEDTHL [PODXL, O00592]
pKd: 5.08
--
binder: PPRQRSETQV [HPV82-E6, Q9IR59]
pKd: 4.12
--
binder: PSRDRKETSI [RALBP1, Q15311]
pKd: 4.49
--
binder: SRSRRRETAL [HPV33-E6, P06427]
pKd: 5.66
--
binder: SGGKRKETLV [NET1, Q7Z628]
pKd: 4
--
binder: KLVIKTETTV [RASSF6, Q6ZTQ3]
pKd: 3.9
--
binder: SHSSKGETAV [FZD7, O75084]
pKd: 4.11
--
binder: KQVVPFSSSV [GDA, Q9Y2T3]
pKd: 3.51
--
binder: QRPYRRESEI [KCNJ12, Q14500]
pKd: 3.83
--
binder: SSIDLWETAL [SLC15A5, A6NIM6]
pKd: 5.76
